assay: Paclitaxel pharmacokinetics in rats after single oral dose with Compound A; settings: rat, in vivo, 50 mg/kg
Metric: half-life (h)

>>> number("CC(=O)O[C@H]1C(=O)[C@@]2(C)[C@H]([C@H](OC(=O)c3ccccc3)[C@]3(O)C[C@H](OC(=O)[C@H](O)[C@@H](NC(=O)c4ccccc4)c4ccccc4)C(C)=C1C3(C)C)[C@]1(OC(C)=O)CO[C@@H]1C[C@@H]2O")
5.3

----------
assay: Paclitaxel pharmacokinetics in rats after single oral dose with Compound A; settings: rat, in vivo, 5 mg/kg
Metric: Cmax (ng/mL)

>>> number("CC(=O)O[C@H]1C(=O)[C@@]2(C)[C@H]([C@H](OC(=O)c3ccccc3)[C@]3(O)C[C@H](OC(=O)[C@H](O)[C@@H](NC(=O)c4ccccc4)c4ccccc4)C(C)=C1C3(C)C)[C@]1(OC(C)=O)CO[C@@H]1C[C@@H]2O")
103

----------
assay: in vivo; conditions: dog, po, 6 mg/kg, AUClast, dogs, Fasted, paclitaxel 6 mg/kg with Compound A 3 mg/kg, single oral dose
Metric: AUC(0-t)

>>> result("CC(=O)O[C@H]1C(=O)[C@@]2(C)[C@H]([C@H](OC(=O)c3ccccc3)[C@]3(O)C[C@H](OC(=O)[C@H](O)[C@@H](NC(=O)c4ccccc4)c4ccccc4)C(C)=C1C3(C)C)[C@]1(OC(C)=O)CO[C@@H]1C[C@@H]2O")
"1600 ng·h/mL"

----------
experiment: Paclitaxel pharmacokinetics in dogs after single oral dose with Compound A; details: dog, in vivo, 4 mg/kg
Metric: Tmax (min)

>>> number("CC(=O)O[C@H]1C(=O)[C@@]2(C)[C@H]([C@H](OC(=O)c3ccccc3)[C@]3(O)C[C@H](OC(=O)[C@H](O)[C@@H](NC(=O)c4ccccc4)c4ccccc4)C(C)=C1C3(C)C)[C@]1(OC(C)=O)CO[C@@H]1C[C@@H]2O")
42

----------
assay: clinical; details: human, in vivo
Metric: half-life

>>> result("CC(=O)O[C@H]1C(=O)[C@@]2(C)[C@H]([C@H](OC(=O)c3ccccc3)[C@]3(O)C[C@H](OC(=O)[C@H](O)[C@@H](NC(=O)c4ccccc4)c4ccccc4)C(C)=C1C3(C)C)[C@]1(OC(C)=O)CO[C@@H]1C[C@@H]2O")
"19.9 to 32.1 h"

----------
test: clinical; conditions: human, in vivo, oral, Cmax, range across dose levels, Day 1
Metric: Cmax

>>> result("CC(=O)O[C@H]1C(=O)[C@@]2(C)[C@H]([C@H](OC(=O)c3ccccc3)[C@]3(O)C[C@H](OC(=O)[C@H](O)[C@@H](NC(=O)c4ccccc4)c4ccccc4)C(C)=C1C3(C)C)[C@]1(OC(C)=O)CO[C@@H]1C[C@@H]2O")
"202 to 280 ng/mL"

----------
assay: clinical; settings: human, in vivo, po, 300 mg/m2
Metric: AUC(0-inf) (ng·h/mL)

>>> number("CC(=O)O[C@H]1C(=O)[C@@]2(C)[C@H]([C@H](OC(=O)c3ccccc3)[C@]3(O)C[C@H](OC(=O)[C@H](O)[C@@H](NC(=O)c4ccccc4)c4ccccc4)C(C)=C1C3(C)C)[C@]1(OC(C)=O)CO[C@@H]1C[C@@H]2O")
3480

----------
experiment: Paclitaxel pharmacokinetics in dogs after single oral dose with Compound A; details: dog, in vivo, 4 mg/kg
Metric: AUC(0-t) (ng·h/mL)

>>> number("CC(=O)O[C@H]1C(=O)[C@@]2(C)[C@H]([C@H](OC(=O)c3ccccc3)[C@]3(O)C[C@H](OC(=O)[C@H](O)[C@@H](NC(=O)c4ccccc4)c4ccccc4)C(C)=C1C3(C)C)[C@]1(OC(C)=O)CO[C@@H]1C[C@@H]2O")
1330
